test: M. tuberculosis H37Rv growth inhibitors, H37Rv strain (AID 1626); conditions: active compounds read high, concentration not given here;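 note: bacteria incubated seven days before Alamar blue readout; 0% = bacteria only wells and 100% = bacteria with antibiotic wells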
The whole screen tested about 220,000 compounds, of which about 2,000 (0.91%) were called active. Another 2% or so got no clear call; they are omitted. These entries were drawn from the full list. Entries with a potency or affinity are not part of this list.
Would you mind telling me the reported inhibition of each entry?

{"compound": "C#CCNC(=O)C1=C[C@@H](C)[C@H](CCCO)[C@@H](OCC)O1", "inhibition": "-2.73% (inactive)"}
{"compound": "O=C(Cc1cccs1)Nc1ccc(-c2nc3ccccc3[nH]2)cc1", "inhibition": "1.13% (inactive)"}
{"compound": "Cc1c2c(nc3ccccc13)CCC(C(C)(C)C)C2 (stereo unspecified)", "inhibition": "6.35% (inactive)"}
{"compound": "CC(Oc1ccc(Cl)cc1Cl)c1nc(-c2ccc(NC(=O)c3ccccn3)cc2)no1 (stereo unspecified)", "inhibition": "-3.67% (inactive)"}

For each entry beneath this line, provide reported inhibition.
1. CN(CC(=O)Nc1ccc(Cl)cc1)CC(=O)Nc1cc(Cl)ccc1C#N
2. CCN1CCN(C(=S)Nc2ccsc2C(=O)OC)CC1
3. COC(=O)COc1cccc(NC(=O)c2ccccc2)c1
4. O=C(COc1ccc2c(c1)CCC2)NCc1cccc(Cl)c1
5. COc1ccc(C(=O)CSc2nnc3ccc(-c4ccccn4)nn23)cc1

Reply |
["-1.32% (inactive)", "2.48% (inactive)", "10.8% (inactive)", "13.9% (inactive)", "2.65% (inactive)"]

====

test: M. tuberculosis H37Rv growth inhibitors, H37Rv strain (AID 1626); conditions: active compounds read high, concentration not given here;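 note: bacteria incubated seven days before Alamar blue readout; 0% = bacteria only wells and 100% = bacteria with antibiotic wells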
In all, about 220,000 compounds went through this assay and about 2,000 (0.91%) were called active. Inconclusive results (about 2%) are left out. The list is a sample of the results. Results with a measured potency or affinity are listed apart.
Would you mind telling me the reported inhibition of each entry?
Numbers only, in %.

Below, 5 compounds whose answers are already recorded.
{"compound": "Cc1cccc(OCCCc2c(C)n[nH]c2C)c1", "numeric readout": 1.52}
{"compound": "COc1ccc(-c2[nH]ncc2CN2CCN(c3ccc(F)cc3)CC2)cc1", "numeric readout": -12.3}
{"compound": "Cc1cc(CSc2ccccc2)ccc1NC(=O)c1ccc(CN2CCOCC2)cc1", "numeric readout": 7.66}
{"compound": "Cc1[nH]c2ccccc2c1NC(=O)CN1CCN(c2cccc(C(F)(F)F)c2)CC1", "numeric readout": 8.35}
{"compound": "COc1cccc(NC(=S)NNC(=O)c2ccccc2OC(F)F)c1", "numeric readout": -13.3}

For each entry beneath this line, provide reported inhibition.
1. CC(Oc1ccc(Cl)cc1Cl)c1ccnc2nc(N3CCOCC3)nn12 (stereo not given)
2. COc1ccc(C)cc1NC(=O)CSc1nnc(-c2ccco2)n1Cc1ccco1
3. O=C(c1ccc2ccccc2c1)C1CCCN(C(=O)CCn2cnnn2)C1 (stereo not given)
4. Nc1ncnc2c1ncn2[C@@H]1O[C@H](CO)[C@@H](O)[C@@H]1O
5. CC(=O)Nc1cccc(C(=O)/C=C/c2ccc[nH]2)c1

Reply |
[7.65, -0.88, 3.36, -0.73, -13.8]

====

Would you mind telling me the reported inhibition of each entry?
experiment: M. tuberculosis H37Rv growth inhibitors, H37Rv strain (AID 1626); details: active compounds read high, concentration not given here;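 note: bacteria incubated seven days before Alamar blue readout; 0% = bacteria only wells and 100% = bacteria with antibiotic wells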
Screen size: about 220,000 compounds; about 2,000 (0.91%) were called active. About 2% were inconclusive and are not listed. These entries were drawn from the full list. Potency and affinity values are given separately.
One number for each entry, in %.

Below, 4 molecules whose answers are already recorded.
{"molecule": "Cc1ccc(-c2csc(NC(=O)CSc3nc(C)cc(=O)[nH]3)n2)cc1", "inhibition [%]": 1.91}
{"molecule": "CS(=O)(=O)N1CCn2c1nc1ccccc12", "inhibition [%]": -12.2}
{"molecule": "CC12CCC(C(=O)N3CCN(C(c4ccccc4)c4ccccc4)CC3)(OC1=O)C2(C)C (centres undefined)", "inhibition [%]": 1.93}
{"molecule": "CN(C)CCCN(C(=O)CCc1ccccc1)c1nc2ccc(F)cc2s1", "inhibition [%]": 7.03}

For each entry beneath this line, provide reported inhibition.
1. Cc1ccc(-c2nnc(-c3ccc(NC(=O)c4ccco4)cc3)o2)cc1
2. CCCCOc1ccc(C(=O)C(CN2CCOCC2)c2ccccc2)cc1 (centres undefined)
3. CN1CCN(c2ccc(Cl)cc2NC(=O)c2ccc(S(=O)(=O)N(C)C)cc2)CC1
4. COC(=O)c1ccccc1NC(=O)CSc1nnc(-c2ccc(C)cc2)o1
5. CC1(C)CC(N=Cc2c(O)n(Cc3ccc4c(c3)OCO4)c(=O)c3ccccc23)CC(C)(C)N1

Reply |
1: 6.39; 2: 66.5; 3: -2.17; 4: 6.5; 5: 15

For each entry beneath this line, provide reported inhibition.
1. Cc1ccc(C(=O)CSc2nc(-c3ccccc3)ccc2C#N)cc1
2. O=C(NC1(C(F)(F)F)NC(=O)N(c2ccccc2F)C1=O)c1ccncc1 (centres undefined)
3. O=C(OCc1nnc(-c2ccccc2)o1)c1ccco1

Reply |
1: 4.37; 2: -15.1; 3: 5.59

For each entry beneath this line, provide reported inhibition.
1. CCCCC(=O)Nc1ccc(C)c(O)c1
2. O=c1[nH]c(/C=C\c2cccnc2)c([N+](=O)[O-])c(=O)[nH]1
3. COc1cc2c(cc1NC(=O)CSc1nnc(Cc3cccs3)n1Cc1ccco1)oc1ccccc12
4. CCOC(=O)c1c(C)oc2ccc(OS(C)(=O)=O)cc12

Reply |
1. 2.73
2. -10.6
3. 7.99
4. 0.04

For each entry beneath this line, provide reported inhibition.
1. Cc1nn(CC(=O)N2c3ccccc3NC(=O)C2(C)C)c(C)c1[N+](=O)[O-]
2. Nc1ccccc1C(=O)OCC(=O)c1ccc2c(c1)OCCO2
3. Cc1ccc2nc(N(CCCN(C)C)C(=O)CCc3ccccc3)sc2c1
4. Cc1nc(SCC(=O)c2cc3ccccc3oc2=O)c(C#N)c(C)c1C(=O)Nc1ccccc1
5. CCOC(=O)c1cc(-c2ccccc2)nn1-c1ccccn1
6. O=c1c2ccccc2c(C=NCCCN2CCOCC2)c(O)n1Cc1ccc2c(c1)OCO2
7. COC(=O)c1c(C)oc2ccc(NS(=O)(=O)c3cccs3)cc12
8. CN(C)S(=O)(=O)c1ccc(C(=O)OCC(=O)Nc2sc3c(c2C#N)CCCCC3)cc1

Reply |
0.71
-1.04
9.45
1.89
-4.13
4.72
2.07
-0.67

For each entry beneath this line, provide reported inhibition.
1. CC(=O)c1ccn(S(=O)(=O)c2ccccc2)c1
2. Cc1cc(NCCC(C)C)n2nc(C)c(-c3ccccc3)c2n1
3. CCOc1ccc(N=C(/C(C(=O)C(=O)N2CCOCC2)=C(/O)c2ccccc2)c2ccccc2)cc1

Reply |
4.75
11.3
70.8

For each entry beneath this line, provide reported inhibition.
1. COC(=O)c1cc(OC)c(OC)cc1NC(=S)Nc1cc(Cl)ccc1OC
2. Cc1nc(SCC(=O)OCc2ccccc2)c(C#N)c(-c2ccccc2)c1C(=O)Nc1ccccc1
3. Cc1oc2ccc(OS(C)(=O)=O)cc2c1C(=O)OC(C)C
4. CCOC(=O)/C(C#N)=N/Nc1ccccc1OC
5. Cn1c(N)c(-c2nc3cccnc3n2C)sc1=S
6. CCCOc1ccc(C(=O)C(CN2CCOCC2)c2ccccc2)cc1 (centres undefined)

Reply |
-12
1.59
-0.97
12.6
2.49
78.9

Ask | inhibition for COC(=O)c1c(C)oc2ccc(OC(=O)N3CCOCC3)cc12 ?
Reply | -6.17

====

assay: M. tuberculosis H37Rv growth inhibitors, H37Rv strain (AID 1626); details: active compounds read high, concentration not given here;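 note: bacteria incubated seven days before Alamar blue readout; 0% = bacteria only wells and 100% = bacteria with antibiotic wells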
Among all 220,000 compounds or so, about 2,000 (0.91%) were called active. Another 2% or so got no clear call; they are omitted. These entries were drawn from the full list. Entries with a potency or affinity are not part of this list.
endpoint label: inhibition (%)
One number for each entry, in %.

Below, 6 molecules whose answers are already recorded.
{"molecule": "COc1ccc(N2C(=O)N(Cc3ccccc3F)c3ccccc3S2(=O)=O)cc1", "inhibition (%)": 6.95}
{"molecule": "Clc1cccc(Cl)c1Cn1nnc(N2CCCC2)n1", "inhibition (%)": -4.55}
{"molecule": "COCCNC(=O)/C(C#N)=C\\c1ccc(CNS(=O)(=O)c2ccccc2)o1", "inhibition (%)": -0.59}
{"molecule": "O=c1[nH]c(N2CCc3ccccc3C2)nc2c1CCC2", "inhibition (%)": -0.21}
{"molecule": "COc1ccc(CC(=O)Nc2ccccc2N2CCCCC2)cc1OC", "inhibition (%)": 6.94}
{"molecule": "CCOC(=O)c1c(C)n(-c2ccc(C)cc2)c2ccc(OCC(O)CN3CCN(C)CC3)cc12 (configuration not stated)", "inhibition (%)": -2.8}

Now turn to the next molecule.
Ask | inhibition for O=C(Nc1ccccc1)OCCCc1ccccc1 ?
Reply | 5.86
